The reported numbers originate from patent US5871779A.

# System: A431
# experimental.details: MTT cytotoxicity assay, A431
# Assay type: cell-based, human
# condition.description: A431, 72 hours
measurement.kind: pIC50
# reply with the number alone; pIC50 is -log10 of concentration in mol/L

compound | pIC50
O=S(=O)([O-])[O-].[O]=[V+2] [vanadyl sulphate] | 4.54

Please look at the following compound next.
// query // pIC50 lookup, key: [Na+].[Na+].[Na+].[O]=[V]([O-])([O-])[O-] [orthovanadate, sodium orthovanadate]
// result 5.12

----------
# Tested on: H460
# experimental.details: MTT cytotoxicity assay, H460
# Type: cell-based, human
# condition.description: H460, 72 hours
Measured IC50 values are reported for all entries that follow.
Please give the number followed by its unit.

Solved cases below.
compound | IC50
O=S(=O)([O-])[O-].[O]=[V+2] [vanadyl sulphate] | 9.3 µM
Cc1occc(=O)c1[O-].Cc1occc(=O)c1[O-].[O]=[V+2] | 6.4 µM
CCc1occc(=O)c1[O][V](=[O])[O]c1c(CC)occc1=O [BEOV, bis(ethylmaltolato) oxovanadium] | 4.4 µM

Please look at the following compound next.
// query // IC50 lookup, key: [Na+].[Na+].[Na+].[O]=[V]([O-])([O-])[O-] [orthovanadate, sodium orthovanadate]
// result 1.5 µM
